# Measured on: DCN1 (DCUND1) protein PONY domain (Homo sapiens (Human), UniProt Q96GG9)
# Sequence (Q96GG9 60-248): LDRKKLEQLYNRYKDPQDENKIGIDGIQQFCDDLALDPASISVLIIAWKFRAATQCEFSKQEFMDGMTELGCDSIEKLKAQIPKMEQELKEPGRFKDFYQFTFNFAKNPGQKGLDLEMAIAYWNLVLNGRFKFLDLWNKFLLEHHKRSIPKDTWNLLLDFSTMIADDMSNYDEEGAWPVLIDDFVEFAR
# Test name: TR-FRET assay, DCN1 binding with FAM-labeled probe
# Condition info: TR FRET IC50 1 hr (nM), 1 hr after treatment with compound
Exercise: for every item that follows, state its recorded IC50.

What does the record list as IC50 for CCN1C(=O)[C@@H](NC(=O)c2cccc(C(F)(F)F)c2)[C@@H](c2ccc(F)cc2)c2c(CNC/C=C/C(=O)OC)nn(-c3ccccc3)c21 (racemic) ?
≤ 200 nM

Same read-out for C=C(CN1CCC1)C(=O)NCc1nn(-c2ccccc2)c2c1[C@H](c1ccc(F)cc1)[C@H](NC(=O)c1cccc(C(F)(F)F)c1)C(=O)N2CC (racemic) ?
≤ 200 nM

Same read-out for `CCN1C(=O)[C@@H](NC(=O)CCN2C(=O)COc3ccccc32)[C@@H](C2CC2)c2c(C(=O)N3[C@H](C#N)C[C@H]4C[C@H]43)nn(C3CCOCC3)c21` ?
1000 to 3000 nM

Same read-out for CCN1C(=O)[C@@H](NC(=O)c2cccc(C(F)(F)F)c2)[C@@H](c2ccc(F)cc2)c2c(C(=O)N(C)[C@H](C)C#N)nn(-c3ccccc3)c21 (single isomer, unassigned) ?
≤ 200 nM

Same read-out for `CCN1C(=O)[C@@H](NC(=O)Cc2cccc(C(F)(F)F)c2)[C@@H](C2CC2)c2c(C(=O)N3[C@H](C#N)C[C@H]4C[C@H]43)nn(C3CCOCC3)c21` ?
1000 to 3000 nM

---

# Measured on: DCN1 (DCUND1) protein PONY domain (Homo sapiens (Human), UniProt Q96GG9)
# Test name: TR-FRET assay, DCN1 binding with FAM-labeled probe
# Condition info: 24 hr after treatment with compound; read-out: TR FRET IC50 24 hr
Property: IC50

What does the record list as IC50 for `CCC(=O)N[C@@H]1C(=O)N(CC)c2c(c(C(=O)N3[C@H](C#N)C[C@H]4C[C@H]43)nn2C2CCOCC2)[C@@H]1C1CC1` ?
1000 to 3000 nM

Same read-out for C=C(C)C(=O)N[C@@H](C)c1nn(-c2ccccc2)c2c1[C@H](c1ccc(F)cc1)[C@H](NC(=O)c1cccc(C(F)(F)F)c1)C(=O)N2CC (mixture of isomers) ?
1000 to 3000 nM

Same read-out for CCN1C(=O)[C@@H](NC(=O)c2cccc(C(F)(F)F)c2)[C@@H](c2ccc(F)cc2)c2c(C/C=C/C(=O)N(C)C)nn(-c3ccccc3)c21 (racemic) ?
1000 to 3000 nM

Same read-out for CCN1C(=O)[C@@H](NC(=O)c2cccc(C(F)(F)F)c2)[C@@H](c2ccc(F)cc2)c2c(CNC(=O)C(C)(C)C#N)nn(-c3ccccc3)c21 (racemic) ?
1000 to 3000 nM

Same read-out for `CCN1C(=O)[C@@H](NC(=O)c2cccc(N3CCCC3=O)c2)[C@@H](C2CC2)c2c(C(=O)N3[C@H](C#N)C[C@H]4C[C@H]43)nn(C3CCOCC3)c21` ?
1000 to 3000 nM

Same read-out for `CCN1C(=O)[C@@H](NC(=O)c2cccc(C(F)(F)F)c2)[C@@H](c2ccc(F)cc2)c2c(C(=O)N(C)[C@@H](C)C#N)nn(C3CCOCC3)c21` ?
≤ 200 nM

Same read-out for CCN1C(=O)[C@@H](NC(=O)c2cccc(C(F)(F)F)c2)[C@@H](c2ccc(F)cc2)c2c(CN(C)C(=O)[C@H](C)Cl)nn(-c3ccccc3)c21 (stereo in doubt) [Compound I-30] ?
1000 to 3000 nM

Same read-out for CCN1C(=O)[C@@H](NC(=O)c2cccc(C(F)(F)F)c2)[C@H](c2ccc(F)cc2)c2c(CNC(=O)C3=C(C(=O)OC)CCC3)nn(-c3ccccc3)c21 (racemic) ?
200 to 1000 nM

Same read-out for `CCN1C(=O)[C@H](NC(=O)c2cccc(C(F)(F)F)c2)[C@H](c2ccc(F)cc2)c2c(C(=O)N3CCC[C@H]3C#N)nn(C3CCOCC3)c21` ?
1000 to 3000 nM

Same read-out for `CCN1C(=O)[C@@H](NC(=O)c2cccc(C(F)(F)F)c2)[C@@H](C2CC2)c2c(C(=O)N3[C@H](C#N)CC[C@@H]3C)nn(C3CCOCC3)c21` ?
200 to 1000 nM

Same read-out for CCN1C(=O)[C@@H](NC(=O)c2cccc(C(F)(F)F)c2)[C@@H](c2ccc(F)cc2)c2c([C@@H](CN(C)C)NC#N)nn(-c3ccccc3)c21 (mixture of isomers) ?
≤ 200 nM

---

# Measured on: DCN1 (DCUND1) protein PONY domain (Homo sapiens (Human), UniProt Q96GG9)
# Test name: TR-FRET assay, DCN1 binding with FAM-labeled probe
# Condition info: TR FRET IC50 1 hr (nM), 1 hr after treatment with compound
Property: IC50

What does the record list as IC50 for `CCN1C(=O)[C@@H](NC(=O)c2cccc(C(F)(F)F)c2)[C@@H](c2ccc(F)cc2)c2c(CN(CC#N)C(C)=O)nn(-c3ccccc3)c21` ?
1000 to 3000 nM

Same read-out for CCN1C(=O)[C@@H](NC(=O)c2cccc(C(F)(F)F)c2)[C@@H](c2ccc(F)cc2)c2c(C(=O)N(C)[C@H](C#N)CCO)nn(-c3ccccc3)c21 (relative stereo) ?
≤ 200 nM

Same read-out for `CCN1C(=O)[C@H](NC(=O)c2cccc(C(F)(F)F)c2)[C@H](c2ccc(F)cc2)c2c(C(=O)N3CCC[C@H]3C#N)nn(-c3cccc(OCCCN4CCN(C5COC5)CC4)c3)c21` ?
1000 to 3000 nM

Same read-out for `CCN1C(=O)[C@@H](NC(=O)c2cccc(C(F)(F)F)c2)[C@@H](c2ccc(F)cc2)c2c([C@@H](O)CNC#N)nn(-c3ccccc3)c21` ?
200 to 1000 nM

Same read-out for CCN1C(=O)[C@@H](NC(=O)c2cccc(C(F)(F)F)c2)[C@@H](c2ccc(F)cc2)c2c(C(=O)N3CCOC[C@H]3C#N)nn(-c3ccccc3)c21 (mixture of isomers) [Compound I-295] ?
1000 to 3000 nM

Same read-out for CCN1C(=O)[C@@H](NC(=O)c2cccc(C(F)(F)F)c2)[C@@H](c2ccc(F)cc2)c2c(C(C)=O)nn(-c3ccccc3)c21 (racemic) ?
1000 to 3000 nM

Same read-out for `CCN1C(=O)[C@@H](NC(=O)c2cccc(C#N)c2)[C@@H](C2CC2)c2c(C(=O)N3[C@H](C#N)C[C@H]4C[C@H]43)nn(C3CCOCC3)c21` ?
200 to 1000 nM

Same read-out for `CCN1C(=O)[C@@H](NC(=O)c2cc(C)n(C(C)(C)C)n2)[C@@H](C2CC2)c2c(C(=O)N3[C@H](C#N)C[C@H]4C[C@H]43)nn(C3CCOCC3)c21` ?
1000 to 3000 nM

Same read-out for CC#CC(=O)Nc1nn(-c2ccccc2)c2c1[C@H](c1ccc(F)cc1)[C@H](NC(=O)c1cccc(C(F)(F)F)c1)C(=O)N2CC (racemic) ?
200 to 1000 nM

Same read-out for CCN1C(=O)[C@@H](NC(=O)c2cccc(C(F)(F)F)c2)[C@@H](c2ccc(F)cc2)c2c(C(F)CNC#N)nn(-c3ccccc3)c21 (mixture of isomers) ?
200 to 1000 nM

Same read-out for `CCN1C(=O)[C@@H](NC(=O)c2ccc3ncoc3c2)[C@@H](C2CC2)c2c(C(=O)N3[C@H](C#N)C[C@H]4C[C@H]43)nn(C3CCOCC3)c21` ?
1000 to 3000 nM

Same read-out for CCN1C(=O)[C@@H](NC(=O)c2cccc(C(F)(F)F)c2)[C@@H](c2ccc(F)cc2)c2c(C(=O)N3[C@H](C#N)C[C@H]4C[C@H]43)nn([C@H]3CCOC3)c21 (relative stereo) ?
≤ 200 nM

Same read-out for `CCN1C(=O)[C@@H](NC(=O)c2cccc(C(F)(F)F)c2)[C@H](c2ccc(F)cc2)c2c(CN(C)C(=O)CC#N)nn(-c3ccccc3)c21` ?
200 to 1000 nM

Same read-out for `CCN1C(=O)[C@@H](NC(=O)c2cccc(C(F)(F)F)c2)[C@@H](C2CCCC2)c2c(C(=O)N(C)[C@H](C)C#N)nn(C3CCOCC3)c21` ?
200 to 1000 nM

Same read-out for `CCN1C(=O)[C@@H](NC(=O)c2cccc(C(F)(F)F)c2)[C@@H](C2CC2)c2c(C(=O)N3CCOC[C@@H]3C#N)nn(-c3ccccc3)c21` ?
1000 to 3000 nM

Same read-out for CCN1C(=O)[C@@H](NC(=O)c2cccc(C(F)(F)F)c2)[C@H](c2ccc(F)cc2)c2c(CNC(=O)C3=C(C(=O)OC)CCC3)nn(-c3ccccc3)c21 (racemic) ?
200 to 1000 nM

Same read-out for `CCN1C(=O)[C@@H](NC(=O)[C@@H]2CCc3nccc(=O)n32)[C@@H](C2CC2)c2c(C(=O)N3[C@H](C#N)C[C@H]4C[C@H]43)nn(C3CCOCC3)c21` ?
1000 to 3000 nM

Same read-out for CCN1C(=O)[C@@H](NC(=O)c2cccc(C(F)(F)F)c2)[C@@H](c2ccc(F)cc2)c2c(CN(C#N)CCCCN(C)C)nn(-c3ccccc3)c21 [Compound I-248] ?
200 to 1000 nM

Same read-out for `CCN1C(=O)[C@@H](NC(=O)c2ccn(C(F)F)n2)[C@@H](C2CC2)c2c(C(=O)N3[C@H](C#N)C[C@H]4C[C@H]43)nn(C3CCOCC3)c21` ?
200 to 1000 nM

Same read-out for `CCN1C(=O)[C@@H](NC(=O)c2cccc(C(F)(F)F)c2)[C@@H](C2CC2)c2c(C(=O)N3CC[C@H]3C#N)nn(-c3ccccc3)c21` ?
1000 to 3000 nM

Same read-out for C=C(CN1CC(F)(F)C1)C(=O)NCc1nn(-c2ccccc2)c2c1[C@H](c1ccc(F)cc1)[C@H](NC(=O)c1cccc(C(F)(F)F)c1)C(=O)N2CC (racemic) ?
200 to 1000 nM

Origin of the recorded values: patent US20250163057A1
